- System: K-562 leukemia
- Assay Notes: NCI tumour cell line growth inhibition, 48 h; in the data active means GI50 below about 0.43 µM; inactive means the rest
Labels: t (active), f (inactive)

Molecule: CC(=O)[CH-]C(C)=O.CC(=O)[CH-]C(C)=O.[CH2-]CCCCCCC.[CH2-]CCCCCCC.[Sn+4]
Tested Target: K-562 leukemia
Assigned Category: f

Molecule: Cn1cc(C2=C(c3cn(CCSC(=N)N)c4ccccc34)C(=O)NC2=O)c2ccccc21
Tested Target: K-562 leukemia
Assigned Category: f

Molecule: COc1ccc2c(c1)C(=O)c1c-2n(CCCNCCO)c(=O)c2ccccc12
Tested Target: K-562 leukemia
Assigned Category: t

Molecule: COc1ccc(/C=N/C2=C(C#N)C(c3ccccc3)c3c(ccc4ccccc34)O2)cc1 (stereo not given)
Tested Target: K-562 leukemia
Assigned Category: t

Molecule: CC1CN1C1=CC(=O)c2c(c(CO)cn2C)C1=O (stereo not given)
Tested Target: K-562 leukemia
Assigned Category: f
